Data origin, for the record: the supplement of paper PMC5499739

Test system: RBM10 RRM1-ZnF (GST-tagged construct);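 further: 20 pmol protein with 1.5 nmol RNA pool for 30 min at 4°C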
Assay: RNAcompete 7-mer binding Z-score; higher = stronger binding preference
In all, about 16,000 sequences were measured (“Z-score”: median about -0.37, highest 2% from about 3.2 on). What follows is part of a selection rich in the highest values, with near analogues and random picks from the rest.
Assign RNAcompete 7-mer binding Z-score to each entry below.
Numbers only.

[[record]]
construct_sequence = "CAAAGGG"
observation_type = "RNAcompete 7-mer binding Z-score"
measured_value = 2.23


Respectfully, I request RNAcompete 7-mer binding Z-score for each entry included below.
1. CGCGGGG
2. UUUAUGG
3. GAGGGGC
4. ACAUCGA
5. UGGGAGA
6. AGCGGGA
7. AAGGAAC
8. CAUCCGC

Result:
[2.15, 0.303, 2.44, -0.48, 2.78, 3.31, 2.26, -0.847]

---

Tested on: RBM10 RRM1-ZnF (GST-tagged construct);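 further: 20 pmol protein with 1.5 nmol RNA pool for 30 min at 4°C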
Assay: RNAcompete 7-mer binding Z-score; higher = stronger binding preference
Whole data set: some 16,000 sequences, median “Z-score” near -0.37, cut for the highest 2% near 3.2. This excerpt belongs to a sample that is enriched for the highest values.
OBSERVATION TYPE: RNAcompete 7-mer binding Z-score
Answers are plain numbers.

Would you please look over these solved cases?
[[record]]
construct_sequence = "UGUGGUU"
observation_type = "RNAcompete 7-mer binding Z-score"
measured_value = 1.84

[[record]]
construct_sequence = "GAAGGUG"
observation_type = "RNAcompete 7-mer binding Z-score"
measured_value = 4.59

[[record]]
construct_sequence = "ACGACAC"
observation_type = "RNAcompete 7-mer binding Z-score"
measured_value = -0.496


Respectfully, I request RNAcompete 7-mer binding Z-score for each entry included below.
1. GAGUGGU
2. AGGGGUG

Result:
1: 2.46; 2: 3.85

Respectfully, I request RNAcompete 7-mer binding Z-score for each entry included below.
1. UGUGGGU
2. AAGGUUU

Result:
3.46
2.51

Respectfully, I request RNAcompete 7-mer binding Z-score for each entry included below.
1. CAGCGCG
2. AGAGAAG
3. GAAAGUU
4. GAGGGUA
5. AAGUGGU
6. UAAGGUA
7. GAAGGUA
8. UGGGGUG

Result:
1: -0.324; 2: 1.63; 3: 0.225; 4: 3.95; 5: 1.82; 6: 1.5; 7: 3.84; 8: 4.74

---

Tested on: RBM10 RRM1-ZnF (GST-tagged construct);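 further: 20 pmol protein with 1.5 nmol RNA pool for 30 min at 4°C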
Assay: RNAcompete 7-mer binding Z-score; higher = stronger binding preference
In all, about 16,000 sequences were measured (“Z-score”: median about -0.37, highest 2% from about 3.2 on). The full list was thinned out, with the highest values kept by preference.
Definition: the class of an entry is the range in low (below -0.03), moderate (-0.03 to below 2), high (2 or more) that contains its RNAcompete 7-mer binding Z-score.

These recorded examples may help you get a feel for the data.
[[record]]
construct_sequence = "AGGAUGC"
assigned_class = "moderate"

[[record]]
construct_sequence = "UAAAUAU"
assigned_class = "low"

[[record]]
construct_sequence = "GAGAUGU"
assigned_class = "moderate"

[[record]]
construct_sequence = "GGGGUGU"
assigned_class = "high"

[[record]]
construct_sequence = "AGAUGAU"
assigned_class = "moderate"

[[record]]
construct_sequence = "AGGGGUA"
assigned_class = "high"

[[record]]
construct_sequence = "UAAUGGG"
assigned_class = "high"

[[record]]
construct_sequence = "CUUAGUG"
assigned_class = "low"


Request: Given UGGAUGC , name the class its RNAcompete 7-mer binding Z-score places it in.
Result: moderate

Request: Given AGGGUGA , name the class its RNAcompete 7-mer binding Z-score places it in.
Result: high

Request: Given AAAGGAC , name the class its RNAcompete 7-mer binding Z-score places it in.
Result: high

Request: Given CGGAUGG , name the class its RNAcompete 7-mer binding Z-score places it in.
Result: high

Request: Given CGGGAAG , name the class its RNAcompete 7-mer binding Z-score places it in.
Result: high

Request: Given UAUACUC , name the class its RNAcompete 7-mer binding Z-score places it in.
Result: low

Request: Given GGUAGCG , name the class its RNAcompete 7-mer binding Z-score places it in.
Result: moderate

Request: Given CGAACGA , name the class its RNAcompete 7-mer binding Z-score places it in.
Result: low

Request: Given CGUAAAG , name the class its RNAcompete 7-mer binding Z-score places it in.
Result: low
